condition_summary: in ethanol, 297.8 K
measurement_type: solubility (mole fraction)
Respond with the number and no other words.

Documented solubility (mole fraction) of `CCCCC1=NC2(CCCC2)C(=O)N1Cc1ccc(-c2ccccc2-c2nn[nH]n2)cc1` : 0.00106

###

condition_summary: in chloroform, 317.8 K
measurement_type: solubility (mole fraction)
Respond with the number and no other words.

Documented solubility (mole fraction) of `CCCCC1=NC2(CCCC2)C(=O)N1Cc1ccc(-c2ccccc2-c2nn[nH]n2)cc1` : 0.00294

###

condition_summary: in acetone, 283.15 K
measurement_type: solubility (mole fraction)
Respond with the number and no other words.

Documented solubility (mole fraction) of `CCCCC1=NC2(CCCC2)C(=O)N1Cc1ccc(-c2ccccc2-c2nn[nH]n2)cc1` : 0.000364
